tested on: SNU638 human stomach cancer cell; assay: SRB cell proliferation assay, SNU638; format: cell-based; conditions: SNU-638, 72 h, 3 days
experimental-endpoint: log10 IC50 (log10 of the value in nM)
Please interpret these as log10 of IC50 where IC50 is in nM.

Before answering, review these 8 worked examples.
If you can, please state the reported log10 IC50 value of Cc1ccc2c(c1)C(=NO)/C(=C1/C(=O)Nc3ccc(Cl)cc31)N2 [Compound 14a] . 4.10

If you can, please state the reported log10 IC50 value of Cc1ccc2c(c1)C(=NO)/C(=C1/C(=O)Nc3ccc(F)cc31)N2 [Compound 14c] . 4.06

If you can, please state the reported log10 IC50 value of O=C1Nc2ccc(OC(F)(F)F)cc2/C1=C1/Nc2ccc(O)cc2C1=NO [Compound 11d] . 3.47

If you can, please state the reported log10 IC50 value of O=C1Nc2ccc(OC(F)(F)F)cc2/C1=C1/Nc2ccc(Cl)cc2C1=NO [Compound 12d] . 3.43

If you can, please state the reported log10 IC50 value of COc1ccc2c(c1)C(=NO)/C(=C1/C(=O)Nc3ccc(F)cc31)N2 [Compound 16b] . 4.13

If you can, please state the reported log10 IC50 value of O=C1Nc2ccc(OC(F)(F)F)cc2/C1=C1/Nc2ccc(F)cc2C1=NO [Compound 13d] . 3.28

If you can, please state the reported log10 IC50 value of O=C1Nc2ccc([N+](=O)[O-])cc2/C1=C1/Nc2ccc(F)cc2C1=NO [Compound 13b] . 2.97

If you can, please state the reported log10 IC50 value of O=C1Nc2ccc(Cl)cc2/C1=C1/Nc2ccc(O)cc2C1=NO [Compound 11a] . 3.71

New cases:
If you can, please state the reported log10 IC50 value of O=C1Nc2ccc(F)cc2/C1=C1/Nc2ccc(F)cc2C1=NO [Compound 13c] . 3.35

If you can, please state the reported log10 IC50 value of O=C1Nc2ccc(F)cc2/C1=C1/Nc2ccc(O)cc2C1=NO [Compound 11c] . 3.32

If you can, please state the reported log10 IC50 value of Cc1ccc2c(c1)C(=NO)/C(=C1/C(=O)Nc3ccc([N+](=O)[O-])cc31)N2 [Compound 14b] . 3.03

If you can, please state the reported log10 IC50 value of O=C1Nc2ccc([N+](=O)[O-])cc2C1=C1Nc2ccc(Br)cc2C1=NO [Compound 2, 5′-Bromo-5-nitro-indirubin-3′-oxime, reference compound] . 3.06

If you can, please state the reported log10 IC50 value of O=C1Nc2ccc([N+](=O)[O-])cc2/C1=C1/Nc2ccc(Cl)cc2C1=NO [Compound 12b] . 3.06

If you can, please state the reported log10 IC50 value of O=C1Nc2ccc(Cl)cc2/C1=C1/Nc2ccc(F)cc2C1=NO [Compound 13a] . 3.80

If you can, please state the reported log10 IC50 value of O=C1Nc2ccc(F)cc2/C1=C1/Nc2ccc(Cl)cc2C1=NO [Compound 12c] . 3.36

If you can, please state the reported log10 IC50 value of O=C1Nc2ccc(Cl)cc2/C1=C1/Nc2ccc(Cl)cc2C1=NO [Compound 12a] . 3.41
